MEASUREMENT TARGET: His6-ERα298-554 D538G mutant (ERα ligand-binding domain) (Homo sapiens (Human), UniProt P03372, D538G)
Sequence (P03372 298-554 D538G): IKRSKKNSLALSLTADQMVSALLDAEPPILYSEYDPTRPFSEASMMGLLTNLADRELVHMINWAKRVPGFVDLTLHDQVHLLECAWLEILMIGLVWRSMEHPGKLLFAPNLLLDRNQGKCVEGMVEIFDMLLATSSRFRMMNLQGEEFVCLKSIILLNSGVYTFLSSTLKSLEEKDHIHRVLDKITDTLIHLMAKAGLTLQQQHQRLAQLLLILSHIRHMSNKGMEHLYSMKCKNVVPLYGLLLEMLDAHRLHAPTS
ASSAY OVERVIEW: Test A: biochemical antagonist activity, LanthaScreen TR-FRET ERα coactivator assay, D538G mutant
MEASUREMENT CONTEXT: asterisk (*): protocol using 10 nM estradiol; read-out: Antagonism D538G IC50
MEASURE NAME: IC50 (nM)
Quick note: give the figure in nM, leave out the unit.

Ask | Output measured IC50 for this item: [2H]C([2H])([2H])Oc1ccc(C2=C(c3ccc(O[C@H]4CCN(CCCF)C4)cc3)c3ccc(O)cc3SC2)c(F)c1
Reply | 83

Ask | Output measured IC50 for this item: CCOc1cc(Cl)ccc1C1=C(c2ccc(O[C@H]3CCN(CCCF)C3)cc2)c2ccc(O)cc2SC1
Reply | 1140

Ask | Output measured IC50 for this item: Oc1ccc2c(c1)CCCC(c1ccc(OC(F)(F)F)cc1F)=C2c1ccc(N[C@H]2CCN(CCCF)C2)cc1
Reply | 293

Ask | Output measured IC50 for this item: CCOc1ccc(C2=C(c3ccc(O[C@H]4CCN(CCCF)C4)cc3)c3ccc(O)cc3SC2)c(C)c1
Reply | 221

* * *

MEASUREMENT TARGET: His6-ERα298-554 D538G mutant (ERα ligand-binding domain) (Homo sapiens (Human), UniProt P03372, D538G)
ASSAY OVERVIEW: Test A: biochemical antagonist activity, LanthaScreen TR-FRET ERα coactivator assay, D538G mutant
MEASUREMENT CONTEXT: protocol with 3 nM estradiol; read-out: Antagonism D538G IC50
For each record, write down the corresponding IC50.
Quick note: give the figure in nM, leave out the unit.

Ask | Output measured IC50 for this item: Cc1cc2c(cc1O)OCCC(c1cccc(Cl)c1C)=C2c1ccc(O[C@H]2CCN(CCCF)C2)cc1 [Example 135]
Reply | 591

Ask | Output measured IC50 for this item: Oc1ccc2c(c1F)OCCC(c1ccc3c(c1)NCC3)=C2c1ccc(O[C@H]2CCN(CCCF)C2)cc1 [Example 132]
Reply | 473

Ask | Output measured IC50 for this item: Oc1ccc2c(c1)OCCC(c1ccc3c(c1)CCN3)=C2c1ccc(O[C@H]2CCN(CCCF)C2)cc1 [Example 104]
Reply | 54

Ask | Output measured IC50 for this item: Oc1ccc2c(c1Cl)OCCC(c1ccc3c(c1)NCC3)=C2c1ccc(O[C@H]2CCN(CCCF)C2)cc1 [Example 125]
Reply | 1340

Ask | Output measured IC50 for this item: Oc1ccc2c(c1)OCCC(c1ccc3[nH]ccc3c1)=C2c1ccc(O[C@H]2CCN(CCCF)C2)cc1 [Example 93]
Reply | 59

Ask | Output measured IC50 for this item: Oc1ccc2c(c1)SCCC(c1cccc(F)c1Cl)=C2c1ccc(O[C@H]2CCN(CCCF)C2)cc1 [Example 168]
Reply | 14

Ask | Output measured IC50 for this item: Oc1ccc2c(c1)OCCC(c1cccc3c1CCN3)=C2c1ccc(O[C@H]2CCN(CCCF)C2)cc1 [Example 117]
Reply | 309

Ask | Output measured IC50 for this item: Cc1cc(C2=C(c3ccc(O[C@H]4CCN(CCCF)C4)cc3)c3ccc(O)cc3S(=O)(=O)CC2)ccc1Cl [Example 236]
Reply | 54

Ask | Output measured IC50 for this item: Oc1ccc2c(c1)C(c1ccc(O[C@H]3CCN(CCCF)C3)cc1)=C(c1ccc(F)cc1Cl)CCS2 [Example 175]
Reply | 116

Ask | Output measured IC50 for this item: Cc1cc(F)ccc1C1=C(c2ccc(O[C@H]3CCN(CCCF)C3)cc2)c2ccc(O)cc2OCC1 [Example 100]
Reply | 54

Ask | Output measured IC50 for this item: Oc1cc2c(cc1F)C(c1ccc(O[C@H]3CCN(CCCF)C3)cc1)=C(c1ccc3c(c1)CCN3)CCO2 [Example 142]
Reply | 1820

Ask | Output measured IC50 for this item: Cc1ccc(C2=C(c3ccc(O[C@H]4CCN(CCCF)C4)cc3)c3cc(C)c(O)cc3OCC2)c(F)c1 [Example 140]
Reply | 644

Ask | Output measured IC50 for this item: Oc1ccc2c(c1)SCCC(c1ccc3cc[nH]c3c1)=C2c1ccc(O[C@H]2CCN(CCCF)C2)cc1 [Example 172]
Reply | 24

Ask | Output measured IC50 for this item: Cc1c(F)cccc1C1=C(c2ccc(O[C@H]3CCN(CCCF)C3)cc2)c2ccc(O)cc2OCC1 [Example 126]
Reply | 94

Ask | Output measured IC50 for this item: Oc1cc2c(cc1Cl)C(c1ccc(O[C@H]3CCN(CCCF)C3)cc1)=C(c1ccc3[nH]ccc3c1)CCO2 [Example 144]
Reply | 4000

Ask | Output measured IC50 for this item: Cc1cc(F)ccc1C1=C(c2ccc(O[C@H]3CCN(CCCF)C3)cc2)c2ccc(O)cc2SCC1 [Example 165]
Reply | 11

Ask | Output measured IC50 for this item: Oc1cccc(C2=C(c3ccc(O[C@H]4CCN(CCCF)C4)cc3)c3ccc(O)cc3OCC2)c1 [Example 91]
Reply | 10

Ask | Output measured IC50 for this item: Cc1c(Cl)cccc1C1=C(c2ccc(O[C@H]3CCN(CCCF)C3)cc2)c2ccc(O)cc2S(=O)(=O)CC1 [Example 235]
Reply | 100

Ask | Output measured IC50 for this item: Cc1ccc(C2=C(c3ccc(O[C@H]4CCN(CCCF)C4)cc3)c3ccc(O)cc3SC2)c(F)c1 [Example 16]
Reply | 16

Ask | Output measured IC50 for this item: Cc1ccc(C2=C(c3ccc(O[C@H]4CCN(CCCF)C4)cc3)c3ccc(O)c(C)c3OCC2)c(F)c1 [Example 111]
Reply | 822

Ask | Output measured IC50 for this item: CCOc1ccc(C2=C(c3ccc(O[C@H]4CCN(CCCF)C4)cc3)c3ccc(O)cc3SCC2)c(F)n1 [Example 187]
Reply | 43

Ask | Output measured IC50 for this item: Cc1c(O)ccc2c1OCCC(c1ccc3c(c1)CCN3)=C2c1ccc(O[C@H]2CCN(CCCF)C2)cc1 [Example 118]
Reply | 442

Ask | Output measured IC50 for this item: Oc1ccc2c(c1)C(c1ccc(O[C@H]3CCN(CCCF)C3)cc1)=C(c1cccc(F)c1Cl)CCS2 [Example 170]
Reply | 129

Ask | Output measured IC50 for this item: Oc1ccc2c(c1F)OCCC(c1cccc3[nH]ccc13)=C2c1ccc(O[C@H]2CCN(CCCF)C2)cc1 [Example 133]
Reply | 64

Ask | Output measured IC50 for this item: Cc1c(Cl)cccc1C1=C(c2ccc(O[C@H]3CCN(CCCF)C3)cc2)c2ccc(O)c(Cl)c2OCC1 [Example 109]
Reply | 215

Ask | Output measured IC50 for this item: Oc1ccc2c(c1)SCC(c1ccc(OC(F)F)c(F)c1)=C2c1ccc(O[C@H]2CCN(CCCF)C2)cc1 [Example 30]
Reply | 694

Ask | Output measured IC50 for this item: Oc1ccc2c(c1)SCC(c1ccc3[nH]ccc3c1)=C2c1ccc(O[C@H]2CCN(CCCF)C2)cc1 [Example 19]
Reply | 23

Ask | Output measured IC50 for this item: Oc1ccc2c(c1)SCCC(c1ccc3[nH]ccc3c1)=C2c1ccc(O[C@H]2CCN(CCCF)C2)cc1 [Example 160]
Reply | 13

Ask | Output measured IC50 for this item: Cc1c(O)ccc2c1OCCC(c1cccc3[nH]ccc13)=C2c1ccc(O[C@H]2CCN(CCCF)C2)cc1 [Example 130]
Reply | 1190

Ask | Output measured IC50 for this item: Cc1cccc(C2=C(c3ccc(O[C@H]4CCN(CCCF)C4)cc3)c3ccc(O)cc3OCC2)c1C [Example 122]
Reply | 41

* * *

MEASUREMENT TARGET: ERα in MCF7 cells (Homo sapiens (Human), UniProt P03372)
Sequence (P03372 whole entry): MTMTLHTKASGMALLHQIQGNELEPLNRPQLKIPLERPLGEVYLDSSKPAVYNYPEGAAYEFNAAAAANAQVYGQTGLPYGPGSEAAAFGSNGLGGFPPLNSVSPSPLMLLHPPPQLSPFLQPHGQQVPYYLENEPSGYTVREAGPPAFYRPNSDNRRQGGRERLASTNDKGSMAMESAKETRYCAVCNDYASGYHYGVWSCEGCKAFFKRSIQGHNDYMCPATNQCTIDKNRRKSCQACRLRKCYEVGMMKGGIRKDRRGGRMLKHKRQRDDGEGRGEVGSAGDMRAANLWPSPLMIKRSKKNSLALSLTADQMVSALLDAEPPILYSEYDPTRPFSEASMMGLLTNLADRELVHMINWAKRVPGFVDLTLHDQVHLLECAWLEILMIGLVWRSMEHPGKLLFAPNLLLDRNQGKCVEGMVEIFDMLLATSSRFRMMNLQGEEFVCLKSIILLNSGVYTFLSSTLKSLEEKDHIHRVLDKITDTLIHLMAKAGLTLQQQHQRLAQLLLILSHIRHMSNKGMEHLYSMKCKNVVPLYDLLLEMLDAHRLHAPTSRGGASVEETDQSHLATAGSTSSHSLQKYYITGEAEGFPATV
ASSAY OVERVIEW: Test C: estrogen receptor degradation activity, ERα in cell western assay in MCF7 cells
Type: cell-based
MEASUREMENT CONTEXT: 4 hours post compound addition, ERα in cell western, read-out: Degradation IC50
// classify: if (DC50 < 1 nM) true (1) else false (0)

Ask | Bench note: check whether CCOc1ccc(C2=C(c3ccc(O[C@H]4CCN(CCCF)C4)cc3)c3ccc(O)cc3OCC2)c(F)c1 shows DC50 below 1 nM
Reply | true (1)

Ask | Bench note: check whether Cc1ccc(C2=C(c3ccc(O[C@H]4CCN(CCCF)C4)cc3)c3ccc(O)c(F)c3OCC2)c(F)c1 shows DC50 below 1 nM
Reply | true (1)

Ask | Bench note: check whether Oc1ccc(C2=C(c3ccc(O[C@H]4CCN(CCCF)C4)cc3)c3cc(O)ccc3CC2)c(F)c1 shows DC50 below 1 nM
Reply | true (1)

Ask | Bench note: check whether Cc1c(Cl)cccc1C1=C(c2ccc(O[C@H]3CCN(CCCF)C3)cc2)c2cc(O)ccc2SCC1 shows DC50 below 1 nM
Reply | false (0)

Ask | Bench note: check whether Oc1cc2c(cc1Cl)C(c1ccc(O[C@H]3CCN(CCCF)C3)cc1)=C(c1ccc3c(c1)CCN3)CCO2 shows DC50 below 1 nM
Reply | false (0)
